assay: Drug concentration in SCID mouse tumor xenografted with human MV4-11 cells at 50 mg/kg, iv measured after 24 hrs by LC-MS/MS method; assay type: ADME, organism-based, Neoplasm; details: read-out: Ct
observable: concentration at 24 h (ng/g)
The answer is to be given in ng/g; state only the numeric part.

Prompt line: Query: concentration at 24 h; subject: Cc1ncsc1-c1ccc([C@H](C)NC(=O)[C@@H]2C[C@@H](O)CN2C(=O)[C@@H](NC(=O)[C@H]2CC[C@H](CN3CC4(CCC(n5cc(-c6cc(-c7ccccc7O)nnc6N)cn5)CC4)C3)CC2)C(C)(C)C)cc1
Response line: 2960

* * *

assay: Drug concentration in SCID mouse plasma xenografted with human MV4-11 cells at 50 mg/kg, iv measured after 72 hrs by LC-MS/MS method; format: ADME, organism-based
observable: concentration at 72 h (ng/mL)
The answer is to be given in ng/mL; state only the numeric part.

Prompt line: Query: concentration at 72 h; subject: Cc1ncsc1-c1ccc([C@H](C)NC(=O)[C@@H]2C[C@@H](O)CN2C(=O)[C@@H](NC(=O)[C@H]2CC[C@H](CN3CC4(CCC(n5cc(-c6cc(-c7ccccc7O)nnc6N)cn5)CC4)C3)CC2)C(C)(C)C)cc1
Response line: 6.7

* * *

molecular target: von Hippel-Lindau disease tumor suppressor/SWI/SNF-related matrix-associated actin-dependent regulator of chromatin subfamily A member 4 (Homo sapiens, UniProt P51532+P40337); test: PROTAC activity at VHL/C-terminal HiBiT fused SMARCA4 in human HeLa cells assessed as induction of SMARCA4 degradation incubated for 24 hrs by Nano-Glo HiBiT analysis; format: cell-based
Sequence (P51532 whole entry, the tested form may be a part): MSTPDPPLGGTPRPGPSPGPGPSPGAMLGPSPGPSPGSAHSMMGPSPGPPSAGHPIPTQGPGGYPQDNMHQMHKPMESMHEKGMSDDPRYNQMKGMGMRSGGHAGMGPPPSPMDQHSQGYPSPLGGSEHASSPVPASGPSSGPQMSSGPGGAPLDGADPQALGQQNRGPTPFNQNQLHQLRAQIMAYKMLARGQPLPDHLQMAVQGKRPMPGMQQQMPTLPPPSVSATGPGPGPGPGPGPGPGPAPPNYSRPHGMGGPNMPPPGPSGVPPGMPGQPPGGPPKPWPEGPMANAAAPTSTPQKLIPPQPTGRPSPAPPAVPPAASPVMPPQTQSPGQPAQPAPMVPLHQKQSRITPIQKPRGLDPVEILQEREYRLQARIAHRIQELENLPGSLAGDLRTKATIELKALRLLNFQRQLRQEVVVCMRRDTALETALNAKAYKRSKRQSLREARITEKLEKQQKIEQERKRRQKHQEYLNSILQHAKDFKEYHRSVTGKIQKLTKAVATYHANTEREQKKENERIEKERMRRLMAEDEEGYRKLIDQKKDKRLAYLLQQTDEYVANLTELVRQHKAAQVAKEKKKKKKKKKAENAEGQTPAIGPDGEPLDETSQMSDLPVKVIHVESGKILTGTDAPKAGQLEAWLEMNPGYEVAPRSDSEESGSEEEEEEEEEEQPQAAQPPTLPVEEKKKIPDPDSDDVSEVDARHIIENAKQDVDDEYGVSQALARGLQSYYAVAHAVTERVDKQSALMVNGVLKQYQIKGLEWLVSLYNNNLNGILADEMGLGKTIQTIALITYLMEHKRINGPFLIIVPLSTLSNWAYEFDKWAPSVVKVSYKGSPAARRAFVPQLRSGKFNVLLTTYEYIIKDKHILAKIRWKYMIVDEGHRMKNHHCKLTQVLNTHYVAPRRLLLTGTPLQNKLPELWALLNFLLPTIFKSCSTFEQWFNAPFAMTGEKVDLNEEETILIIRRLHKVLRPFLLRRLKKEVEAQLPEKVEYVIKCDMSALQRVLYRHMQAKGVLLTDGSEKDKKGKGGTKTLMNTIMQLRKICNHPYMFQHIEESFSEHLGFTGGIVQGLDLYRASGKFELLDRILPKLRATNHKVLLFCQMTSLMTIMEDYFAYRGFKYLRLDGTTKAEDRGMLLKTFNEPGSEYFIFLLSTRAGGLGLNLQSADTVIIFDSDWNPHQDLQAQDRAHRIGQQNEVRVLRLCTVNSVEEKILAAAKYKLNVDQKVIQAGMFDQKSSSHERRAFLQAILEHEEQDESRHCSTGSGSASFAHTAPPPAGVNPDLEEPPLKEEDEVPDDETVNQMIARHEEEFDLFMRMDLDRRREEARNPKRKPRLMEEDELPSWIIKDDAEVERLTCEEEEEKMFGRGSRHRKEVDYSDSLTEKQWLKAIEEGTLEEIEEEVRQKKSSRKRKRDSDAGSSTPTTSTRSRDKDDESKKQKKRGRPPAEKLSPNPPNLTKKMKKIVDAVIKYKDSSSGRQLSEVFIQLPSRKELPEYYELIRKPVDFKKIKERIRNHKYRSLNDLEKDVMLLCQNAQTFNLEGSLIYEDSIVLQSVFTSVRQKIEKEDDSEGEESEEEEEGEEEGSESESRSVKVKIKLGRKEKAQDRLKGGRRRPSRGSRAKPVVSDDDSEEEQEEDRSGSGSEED
Sequence (P40337 whole entry, the tested form may be a part): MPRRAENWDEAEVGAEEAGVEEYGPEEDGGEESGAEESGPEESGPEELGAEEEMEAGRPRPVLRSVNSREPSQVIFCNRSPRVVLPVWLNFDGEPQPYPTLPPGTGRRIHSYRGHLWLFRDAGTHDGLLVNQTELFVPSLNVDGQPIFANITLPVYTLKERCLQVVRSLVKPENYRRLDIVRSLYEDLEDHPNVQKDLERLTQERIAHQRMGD
A collection of compounds and their measured DC50
The answer is to be given in µM; state only the numeric part.

- query smiles: "Cc1ncsc1-c1ccc([C@H](C)NC(=O)[C@@H]2C[C@@H](O)CN2C(=O)[C@@H](NC(=O)CCCCCCCCCn2cc(-c3cc(-c4ccccc4O)nnc3N)cn2)C(C)(C)C)cc1"
  units: "µM"
  DC50: 0.008

Attention now shifts to the item below.
Prompt line: Query: DC50; subject: Cc1ncsc1-c1ccc([C@H](C)NC(=O)[C@@H]2C[C@@H](O)CN2C(=O)[C@@H](NC(=O)CCN2CCN(CCCn3cc(-c4cc(-c5ccccc5O)nnc4N)cn3)CC2)C(C)C)cc1
Response line: 0.585

* * *

assay: Drug concentration in SCID mouse tumor xenografted with human MV4-11 cells at 50 mg/kg, iv measured after 2 hrs by LC-MS/MS method; assay type: ADME, organism-based, Neoplasm; conditions: read-out: Ct
observable: concentration at 2 h (ng/g)
The answer is to be given in ng/g; state only the numeric part.

Prompt line: Query: concentration at 2 h; subject: Cc1ncsc1-c1ccc([C@H](C)NC(=O)[C@@H]2C[C@@H](O)CN2C(=O)[C@@H](NC(=O)[C@H]2CC[C@H](CN3CC4(CCC(n5cc(-c6cc(-c7ccccc7O)nnc6N)cn5)CC4)C3)CC2)C(C)(C)C)cc1
Response line: 3420

* * *

target: von Hippel-Lindau disease tumor suppressor/SWI/SNF-related matrix-associated actin-dependent regulator of chromatin subfamily A member 4 (Homo sapiens, UniProt P51532+P40337); experiment: PROTAC activity at VHL/C-terminal HiBiT fused SMARCA4 in human HeLa cells assessed as induction of SMARCA4 degradation by measuring maximal efficacy incubated for 24 hrs by Nano-Glo HiBiT analysis relative to control; format: cell-based
Sequence (P40337 whole entry, looked up, the tested form may be a part): as the sequence (P40337 whole entry, the tested form may be a part) above
Sequence (P51532 whole entry, looked up, the tested form may be a part): as the sequence (P51532 whole entry, the tested form may be a part) above
A collection of molecules and their measured Emax
The answer is to be given in %; state only the numeric part.

- query smiles: "Cc1ncsc1-c1ccc([C@H](C)NC(=O)[C@@H]2C[C@@H](O)CN2C(=O)[C@@H](NC(=O)[C@H]2CC[C@H](CN3CC4(CCC(n5cc(-c6cc(-c7ccccc7O)nnc6N)cn5)CC4)C3)CC2)C(C)(C)C)cc1"
  Emax, %: 44
- query smiles: "Cc1ncsc1-c1ccc([C@H](C)NC(=O)[C@@H]2C[C@@H](O)CN2C(=O)[C@@H](NC(=O)CCCCCN2CCC(n3cc(-c4cc(-c5ccccc5O)nnc4N)cn3)CC2)C(C)(C)C)cc1"
  Emax, %: 77

Attention now shifts to the item below.
Prompt line: Query: Emax; subject: Cc1ncsc1-c1ccc([C@H](C)NC(=O)[C@@H]2C[C@@H](O)CN2C(=O)[C@@H](NC(=O)CCN2CCN(CCCn3cc(-c4cc(-c5ccccc5O)nnc4N)cn3)CC2)C(C)C)cc1
Response line: 76

Values were extracted from ChEMBL document CHEMBL5325488.
